Each recorded value in this set is attributed to patent US10336762B2.

For each entry below, report its IC50 value.
# ASSAYED TARGET: IRAK4 enzyme (Homo sapiens (Human))
# Sequence (Q9NWZ3 whole entry): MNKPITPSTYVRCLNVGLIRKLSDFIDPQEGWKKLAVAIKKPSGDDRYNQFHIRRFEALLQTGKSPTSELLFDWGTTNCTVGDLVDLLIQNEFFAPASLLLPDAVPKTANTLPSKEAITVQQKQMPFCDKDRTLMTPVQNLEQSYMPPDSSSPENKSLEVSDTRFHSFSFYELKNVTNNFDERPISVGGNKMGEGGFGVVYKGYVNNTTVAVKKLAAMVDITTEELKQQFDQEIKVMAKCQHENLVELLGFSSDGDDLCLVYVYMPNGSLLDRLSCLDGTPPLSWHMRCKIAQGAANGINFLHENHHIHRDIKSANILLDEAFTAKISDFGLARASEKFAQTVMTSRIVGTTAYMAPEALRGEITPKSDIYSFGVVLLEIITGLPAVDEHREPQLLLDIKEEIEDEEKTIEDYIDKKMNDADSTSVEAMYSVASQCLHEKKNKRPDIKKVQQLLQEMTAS
# EXPERIMENT SUMMARY: biochemical
# Assay type: biochemical
# MEASUREMENT SETUP: IRAK4 enzyme, TR-FRET, 500 μM ATP

Q: Returns the measured IC50 for the input molecule. Input: `CCCC(=O)NC[C@H]1C[C@H](Nc2cc(-c3ccc4cc(C#N)cnn34)ncc2C(=O)NC[C@@H](F)C(C)(C)O)C1`
Result: < 1 nM

Q: Returns the measured IC50 for the input molecule. Input: `CC(C)(C)OC(=O)CNC(=O)c1cnc(-c2ccc3cc(C#N)cnn23)cc1NC12CCC(O)(CC1)CC2`
Result: < 1 nM

Q: Returns the measured IC50 for the input molecule. Input: `CC(C)(O)[C@H](F)CNC(=O)c1cnc(-c2ccc3cc(C#N)cnn23)cc1NC12CC(C#N)(C1)C2`
Result: < 1 nM

Q: Returns the measured IC50 for the input molecule. Input: `CC(C)(O)[C@H](F)CNC(=O)c1cnc(-c2ccc3cc(C#N)cnn23)cc1Nc1cnn([C@H]2CCN(C3COC3)C2)c1`
Result: < 1 nM

Q: Returns the measured IC50 for the input molecule. Input: `CNC(=O)c1ccc(Nc2cc(-c3ccc4cc(C#N)cnn34)ncc2C(=O)NC[C@@H](F)C(C)(C)O)cc1`
Result: < 1 nM

Q: Returns the measured IC50 for the input molecule. Input: `CCOc1cc(Nc2cc(-c3ccc4cc(C#N)cnn34)ncc2C(=O)NC[C@@H](F)C(C)(C)O)ccn1`
Result: < 1 nM

Q: Returns the measured IC50 for the input molecule. Input: `N#Cc1cnn2c(-c3cc(NC45CCC(O)(CC4)CC5)c(C(=O)NCC(=O)N4CC[C@@H](O)C4)cn3)ccc2c1`
Result: < 1 nM

Q: Returns the measured IC50 for the input molecule. Input: `CC(C)(O)[C@H](F)CNC(=O)c1cnc(-c2ccc3cc(C#N)cnn23)cc1N[C@H]1C[C@H](CNS(C)(=O)=O)C1`
Result: < 1 nM

Q: Returns the measured IC50 for the input molecule. Input: `CC(C)(O)[C@H](F)CNC(=O)c1cnc(-c2ccc3cc(C#N)cnn23)cc1Nc1cncc(OC(F)F)c1`
Result: < 1 nM
